experimental target: T1, human IL-11 (human, UniProt P20809 22-199)
T1 construct: In the ELISAs this is recombinant human IL-11 coated on the plate (expressed in CHO cells as Fc-tagged and tag-free versions); In the fibroblast assays it is the IL-11 produced by human fibroblasts after TGFβ1 stimulation; also called recombinant human IL-11 (GenScript Cat. No. Z03108-1); interleukin 11
T1 sequence (looked up): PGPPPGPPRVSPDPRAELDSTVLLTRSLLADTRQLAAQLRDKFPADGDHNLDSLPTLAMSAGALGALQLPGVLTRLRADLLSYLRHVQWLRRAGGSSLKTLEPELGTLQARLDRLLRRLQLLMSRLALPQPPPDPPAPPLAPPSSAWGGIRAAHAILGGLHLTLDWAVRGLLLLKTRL
test summary: EC50 from the indirect ELISA titrations of FIGS. 28A-28F on plate-coated recombinant human IL-11 (five-parameter fit), ng/ml is the concentration unit of FIG. 28 and paragraph 502
Cut-off 0.04 µg/mL on EC50: below means class 1, at or above means class 0.

>  <binder>
YU46-D3 (Fc fusion, not shown: a dimerising Fc or GST; small tags and cut ends, tested as scFv-Fc (human IgG1); also called #56) VH: EVQLLESGGGVVQPGRSLRLSCAASGFTFSSYAMHWVRQAPGKGLEWVAVISYDGSNKYYADSVKGRFTSSRDNSKNTLYLQMNSLRAEDTAVYYCARSGVLDYWGQGTLVTVSS VL: QSALTQPASVSGSPGQSITISCTGTSSDVGNYKYVSWYQQHPGKAPKLMIYDVSNRPSGVSNRFSGSKSGNTASLTISGLQAEDEADYYCSSYTSSSTLVVFGGGTKLTVL

>  <group>
class 0

$$$$
>  <binder>
Yu45-G8 (Fc fusion, not shown: a dimerising Fc or GST; small tags and cut ends, also called YU45-G8/H6; #19) VH: EVQLVESGGGVVQPGRSLRLSCAASGFTFSSYGMHWVRQAPGKGLEWVAVISYDGSNKYYADSVKGRFTISRDNSKNTLYLQMNSLRAEDTAVYYCAKFARGVYLFDYWGQGTLVTVSS VL: QSALTQPASVSGSPGQSITISCTGTSSDVGGYDYVSWYQQHPGTAPKLMISDVHNRPLGVSNRFSGSKSGNTASLTISGLQAEDEADYYCSSYTSSITWVFGGGTKLTVL

>  <group>
class 1

$$$$
>  <binder>
YU33-B4/YU45-G2/A3 (Fc fusion, tested as scFv-Fc (human IgG1)) VH: EVQLVESGGGVVQPGRSLRLSCAASGFTFSSYGMHWVRQAPGKGLEWVAVISYDGSNKYYADSVKGRFTISRDNSKNTLYLQMNSLRAEDTAVYYCAKIGATDPLDYWGQGTLVTVSS VL: QSALTQPASVSGSPGQSITISCTGTSSDVGGYNYVSWYQQHPGKAPKLMIYDVSNRPSGVSNRFSGSKSGNTASLTIFGLQAEDEADYYCSSYTSSSSWVFGGGTKLTVL

>  <group>
class 1

$$$$
>  <binder>
YU46-E3 (Fc fusion, not shown: a dimerising Fc or GST; small tags and cut ends, tested as scFv-Fc (human IgG1); also called #50) VH: QVQLVESGGGVVQPGRSLRLSCAASGFTFSSYGMHWVRQAPGKGLEWVAVISYDGSNKYYADSVKGRFTISRDNSKNTLYLQMNSLRAEDTAVYYCARIGGYDDFDYWGQGTLVTVSS VL: QSALTQPASVSGSPGQSITISCTGTSSDVGGYNYVSWYQQHPGKAPKLMIYDVSNRPSGVSNRFSGSKSGNTASLTISGLQAEDEADYYCSSYTSSSTWVFGGGTKLTVL

>  <group>
class 0

$$$$
>  <binder>
YU45-G1 (Fc fusion, tested as scFv-Fc (human IgG1); also called #11) VH: EVQLLESGGGVVQPGRSLRLSCAASGFTFSSYGMHWVRQAPGKGLEWVAVISYDGSNKYYADSVKGRFTISRDNSKNTLYLQMNSLRAEDTAVYYCAKLSGPNGVDYWGQGTLVTVSS VL: QSALTQPRSVSGSPGQSVTISCTGTSSDVGGYNYVSWYQQHPGKAPKLMIYDVSKRPSGVPDRFSGSKSGNTASLTVSGLQAEDEADYYCCSYAGSYTFVFGGGTKLTVL

>  <group>
class 0

$$$$
